Assay system Aromatase (Homo sapiens, UniProt P11511); read-out recorded as pIC50.
pIC50: −log10 of the molar value.
measured-endpoint: pIC50

A = Fc1ccc(-c2[nH]c3cc(Cl)ccc3c2Cn2cncn2)cc1
B = COc1ccc2c(Cn3cncn3)c(-c3ccc(Cl)cc3)[nH]c2c1
Data request: // which entry has the larger pIC50 value, A or B ? Give the chosen item's label as your response.
Data returned: A
(A: 7.01, B: 5.11)

P = Fc1ccc(-c2[nH]c3cc(F)ccc3c2Cn2cncn2)cc1
Q = COc1ccc2c(Cn3ccnc3)c(-c3ccc(F)cc3)[nH]c2c1
R = COc1ccc(-c2[nH]c3cc(Cl)ccc3c2Cn2ccnc2)cc1
S = Clc1ccc(-c2[nH]c3cc4c(cc3c2Cn2cncn2)OCO4)cc1
Data request: Given 4 molecules, produce a descending ranking by pIC50. // rank by listing labels in the order requested
Data returned: P, Q, R, S

P = Clc1ccc(-c2[nH]c3cc(Cl)ccc3c2Cn2ccnc2)cc1
Q = Fc1ccc(-c2[nH]c3cc(F)ccc3c2Cn2ccnc2)cc1
Data request: Between P and Q , whose measured pIC50 reads higher? State the label of the item chosen.
Data returned: Q
